# procedure.summary: Human HepG2 cell viability assay in 384 well format
# Type: toxicity, cell-based
# Set-up: dose 125 nL, time 70.5 hour; concentration not given beside the values
# conditions: HepG2 cells, read-out: Inhibition
property.name: cytotoxicity at 70.5 h (%)
Field format: number, assumed %, no unit text.

Please fill in: cytotoxicity at 70.5 h reported for Cc1ncsc1CN1C[C@@H]2COC[C@]2(COc2ccc(C#N)cn2)C1 = -4.4

// recorded cytotoxicity at 70.5 h for Cc1nc(Nc2nnc(C)s2)cc(C2CCCN2c2ccncn2)n1 (stereo unspecified) : -8.94

For record Cc1nc(-c2c(C)noc2C)cc(C2CCN(CC(=O)N(C)C)CC2)n1 the listed cytotoxicity at 70.5 h is 5.85

So, Cc1ccc(CN2C[C@@H]3CN(c4ncc(F)cn4)C[C@@H]3C2)cc1 ? Its cytotoxicity at 70.5 h was -1.01

response.value for COc1ccc(C(CC(=O)O)NC(=O)c2cc(C)on2)cc1 (stereo unspecified) (field: cytotoxicity at 70.5 h) = -1.84

The measured cytotoxicity at 70.5 h associated with Cc1cnc(CN2CCC(N(C)Cc3nnc(C)n3C)C2)cn1 (stereo unspecified) reads -0.164

----------
I'd be grateful if you could share measured cytotoxicity at 70.5 h for these entries.
# procedure.summary: Human HepG2 cell viability assay in 384 well format
# Assay type: toxicity, cell-based
# Set-up: dose 125 nL, time 70.5 hour; concentration not given beside the values
# conditions: HepG2 cells, read-out: Inhibition
Please give a number only; it is taken to be in %.

Form field cytotoxicity at 70.5 h, entry COc1cc(CN2CCC(NC(=O)c3cccn3C)C2)cc(OC)c1 (centres undefined) : -7.95

The value of cytotoxicity at 70.5 h measured for the compound CS(=O)(=O)NC[C@H]1Cn2c(-c3ccc(Cl)cc3)cnc2CO1 turned out to be -7.36

Memo: CCN1CCOCC12CCN(C(=O)C1CCCC1)CC2 , reported cytotoxicity at 70.5 h: -0.25

For reference, reported cytotoxicity at 70.5 h for COc1ccccc1-c1nnc([C@H]2CCN(C(=O)C3CC3)C2)o1 stands at 11.5

Entry CC[C@H](C)Nc1ncc(-c2ccn(C3CCN(C(C)=O)CC3)n2)cn1 , cytotoxicity at 70.5 h reported as -5.16

Value of measured cytotoxicity at 70.5 h for the entry FC(F)(F)Cn1ccnc1CN1CCCC1c1noc(C2CC2)n1 (centres undefined) : -0.904

In plain terms, OCc1nnc2n1CCN(c1cnccn1)C2 has a documented cytotoxicity at 70.5 h of -1.17

Reported cytotoxicity at 70.5 h of O=C(C1SCCc2sccc21)N1CC(O)C1 (centres undefined) : -5.69

Briefly, cytotoxicity at 70.5 h measured for CC(=O)N1CCC(c2cncc(N3CCOCC3)n2)CC1 : -8.68

compound Cc1nc(NC(=O)N(C)Cc2ccoc2)nn1C , cytotoxicity at 70.5 h observed: -4.45

Entry Cn1cc(C2CCCN2C(=O)CCc2cnn(-c3ccccc3)c2)cn1 (centres undefined) ; cytotoxicity at 70.5 h = -3.27

Form field cytotoxicity at 70.5 h, entry CCOCC(=O)N1C[C@H]2CC[C@@H]1CN(C(=O)c1ccncc1)C2 : -1.67

Memo: CNc1cc(C)nc(C2COCCN2CCOc2ccc(F)cc2)n1 (centres undefined) , reported cytotoxicity at 70.5 h: -3.24

Value of cytotoxicity at 70.5 h reported for the compound C[C@H]1C(=O)NC[C@H]2CN(CCc3ccccc3)C[C@H]21 is -9.77

Field cytotoxicity at 70.5 h (entry CNc1ncc(C(=O)N2CC[C@@](O)(C3CCOCC3)[C@H](C)C2)cn1 ) reads 5.71

Cc1nc(N2CCN(C(=O)c3ccsc3)CC2)c2cnn(C)c2n1 yielded cytotoxicity at 70.5 h of -10.3

// field: cytotoxicity at 70.5 h; key: O=C(c1cscn1)N1CCC2(CN(Cc3ccsc3)C2)C1 ; value = 31.3

Entry COc1ccc(N2CCN(C(=O)CCCc3cn[nH]c3)CC2=O)cc1 — recorded cytotoxicity at 70.5 h = 24.3

Lookup result for O=C(NCCC(O)c1ccoc1)Nc1cccs1 (centres undefined) ; measured cytotoxicity at 70.5 h: -9.28

Lab book: cytotoxicity at 70.5 h of O=C(NCCN1CCC(c2cccs2)CC1)Nc1cccs1 noted as -3.14

Short answer for Cn1nc(C2CCCN2)c2c(C(=O)NC3CC3)cc(C3CC3)nc21 (centres undefined) : cytotoxicity at 70.5 h was 20

# cytotoxicity at 70.5 h (compound: COc1ccc(Br)c(C(=O)NCC2CCN(C(=O)c3ccoc3)CC2)c1 ) is 0.959

cytotoxicity at 70.5 h for O=S(=O)(c1cccs1)N1CCCC(c2nccs2)C1 (centres undefined) is -3.29

Record summary for Cc1cc(CN2CCN(c3ccc4nncn4n3)CC2)no1 : reported cytotoxicity at 70.5 h = -11.5

----------
So I've got a bunch of compounds here, and I need their cytotoxicity at 70.5 h values.
# procedure.summary: Human HepG2 cell viability assay in 384 well format
# Type: toxicity, cell-based
# Parameters: dose 125 nL, time 70.5 hour; concentration not given beside the values
# conditions: HepG2 cells, read-out: Inhibition
API: value field is a number in %; no unit string.

// cytotoxicity at 70.5 h lookup, compound = c1ccc(-c2noc(CN3CCOC(Cn4cccn4)C3)n2)nc1 (configuration not stated) , result: -8.08

For record CC(=O)N1Cc2nc(C(=O)NCCc3cccnc3)oc2C1 the listed cytotoxicity at 70.5 h is -6.92

Field cytotoxicity at 70.5 h (entry CCS(=O)(=O)NCC(=O)N(C1CC1)C1Cc2ccccc2C1 ) reads -9.21

Short answer for COc1ccc(CNc2cnn(C)c(=O)c2Cl)cc1 : cytotoxicity at 70.5 h was 1.82

cytotoxicity at 70.5 h reported for this compound Cc1nn(CCN2CCSCC2)cc1CNCc1ccccn1 : -5.69

Entry O=C(c1cc(C2CC2)nc2onc(-c3ccccc3)c12)N1CCOCC1 , cytotoxicity at 70.5 h reported as 18.5

compound O=S(=O)(CC1CCCCO1)Nc1c(F)cccc1-n1cccn1 (configuration not stated) , cytotoxicity at 70.5 h observed: -3.07

The reported value for Cc1n[nH]c(C2CN(C(=O)c3ccco3)CCO2)n1 (configuration not stated) in terms of cytotoxicity at 70.5 h is -4.63

// field: cytotoxicity at 70.5 h; key: O=C(NCc1ccnc(OCC(F)(F)F)c1)NCC1COCCO1 (configuration not stated) ; value = -6.7

Memo: CN(CCCOc1ccccc1)Cc1nccn1C , reported cytotoxicity at 70.5 h: -4.56

Lab note: measured cytotoxicity at 70.5 h of COc1ccccc1C(C)N1CCN(S(C)(=O)=O)CC1 (configuration not stated) was 11.4

// sample CC(=O)N1CCCC1c1cc(N2CCN(CC(C)(C)C)CC2)cc(C)n1 (configuration not stated) , its cytotoxicity at 70.5 h was -7.87

----------
# procedure.summary: Human HepG2 cell viability assay in 384 well format
# Format: toxicity, cell-based
# Design: dose 125 nL, time 70.5 hour; concentration not given beside the values
# conditions: HepG2 cells, read-out: Inhibition
Would you kindly list cytotoxicity at 70.5 h for each of these molecules?
Answers without a unit are incomplete; give the number and then its unit.

What the record says about Cc1ccc(CNS(=O)(=O)CCCC#N)cc1F : cytotoxicity at 70.5 h is -4.22%

// field: cytotoxicity at 70.5 h; key: O=C(NCCOc1ccc2c(c1)OCO2)N1CCC1 ; value = -12.5%

Note to self: cytotoxicity at 70.5 h recorded for CN(C1CCN(c2ccccn2)CC1)S(=O)(=O)c1ccc(F)cc1 was -6.89%

Short answer for O=S(=O)(c1cccs1)N1CC[C@H]2[C@H]1CCN2c1ncccn1 : cytotoxicity at 70.5 h was -4.67%

The reported cytotoxicity at 70.5 h of the molecule COc1cccc(-c2ccc(CNC(=O)c3ccc(=O)n(C)c3)cc2)c1 was 6.19%

What the record says about CC(C)CN1CCC2(CC1)CC(NS(C)(=O)=O)c1ccccc1O2 (stereo not given) : cytotoxicity at 70.5 h is 3.23%

So, O=C1CC(c2ccsc2)c2sc(C(=O)O)c(-c3ccc(F)cc3)c2N1 (stereo not given) ? Its cytotoxicity at 70.5 h was -4.46%

# molecule CCN(Cc1ccccn1)Cc1cc(Cl)ccc1OC ; its cytotoxicity at 70.5 h = 2.41%

Record summary for Cc1noc(CNC(=O)C2CSCCC(=O)N2)n1 (stereo not given) : reported cytotoxicity at 70.5 h = -12.9%

Notebook: CN1CCC(N2CCOC[C@H]2c2nc(-c3ccncc3)c[nH]2)CC1 , cytotoxicity at 70.5 h read as 3.14%

Given item CCN(C(=O)CN1CCn2c(C)nnc2C1)C1=CCCCC1 , the value recorded as its cytotoxicity at 70.5 h is -17%

Lab book: cytotoxicity at 70.5 h of Cc1nc(C)c(C(=O)N2CCCN(Cc3cnn(C)c3)CC2)s1 noted as -3.11%

The molecule listed as CNS(=O)(=O)CC1CCCN1c1ccccn1 (stereo not given) has a reported cytotoxicity at 70.5 h of -4.24%

Record summary for Cc1cc(C)nc(NC2CC(=O)N(C)C2)n1 (stereo not given) : reported cytotoxicity at 70.5 h = -8.75%

Record Cc1sc2nc(CCN)nc(N3CCS(=O)(=O)CC3)c2c1C , field cytotoxicity at 70.5 h: -0.146%

Item: CN(CCc1ccccn1)C(=O)c1ccccc1F | cytotoxicity at 70.5 h: -4.18%

Please fill in: cytotoxicity at 70.5 h reported for CCc1cc(=O)n(CC(=O)N2CCC(C)CC2)c(-c2cccc(F)c2)n1 = -3.1%

Form field cytotoxicity at 70.5 h, entry Cc1ccccc1C(CC(=O)NCc1nnc(N)s1)c1ccccc1 (stereo not given) : -3.82%

Record Cc1nccc(C(=O)NC(COCC(C)C)c2ccco2)n1 (stereo not given) , field cytotoxicity at 70.5 h: 19.4%

Record Cc1ccc(NC(=O)NCC(c2cnn(C)c2)N(C)C)c(C)c1 (stereo not given) . Reported cytotoxicity at 70.5 h: -11%

The reported value for Cc1ccc(-c2nc(CN3CCOC(c4ccccc4)C3)cs2)o1 (stereo not given) in terms of cytotoxicity at 70.5 h is -9.61%

Looking up N#Cc1c(N)nc2c(c1C1CCOC1)CCc1cc(O)ccc1-2 (stereo not given) , I found its cytotoxicity at 70.5 h recorded as -11.5%

What the record says about CCc1n[nH]c(C2CN(C(=O)c3cnc(C)nc3CC)CCO2)n1 (stereo not given) : cytotoxicity at 70.5 h is -8.34%

// CCc1ncncc1C(=O)N1CCN(Cc2ccco2)CC1 : cytotoxicity at 70.5 h value = 10.8%

Summary for this molecule, Cc1ccc(CC(=O)N2CCC(Nc3ccc(C)nn3)CC2)cn1 : cytotoxicity at 70.5 h is -1.2%
